system: HCC1937; assay: normalised viability (% of control), CellTiter-Blue; higher = more viable cells (about 100 = DMSO control); details: 10000 nM; incubation time: 72 h
MEASURED_METRIC: normalised viability (%)
Could you give me the number in %? Just the number is fine.

Examples with answers:
O=NN(CCCl)C(=O)NCCCl 71.5
CC1=C2C[C@H]3[C@@H](CC=C4C[C@@H](O)CC[C@@]43C)[C@@H]2CC[C@]12O[C@@H]1C[C@H](C)CN[C@H]1[C@H]2C 105
Cn1cnc2c(F)c(Nc3ccc(Br)cc3Cl)c(C(=O)NOCCO)cc21 68.6
CC(C)(C)c1cnc(CSc2cnc(NC(=O)C3CCNCC3)s2)o1 17.1
CC1(C)CNc2cc(NC(=O)c3cccnc3NCc3ccncc3)ccc21 88.5

Here is another compound to look at.
Data point: Oc1ncnc2[nH]ncc12 ; normalised viability = 96.2

* * *

test system: HCC1937; assay: normalised viability (% of control), CellTiter-Blue; higher = more viable cells (100 = DMSO, 0 = benzethonium chloride kill control); details: incubation time: 72 h
MEASURED_METRIC: normalised viability (%)
Could you give me the number in %? Just the number is fine.

Examples with answers:
COMPOUND	SCALE_UNIT	normalised viability
Cn1cnc2c(F)c(Nc3ccc(Br)cc3Cl)c(C(=O)NOCCO)cc21 [Selumetinib] (1 nM)	%	100
CC1(C)CNc2cc(NC(=O)c3cccnc3NCc3ccncc3)ccc21 [Motesanib] (1 nM)	%	93.4
Nc1nc2[nH]cnc2c(=S)[nH]1 [Thioguanine] (1 nM)	%	90.2
CC[C@@H]1C(=O)OC[C@@H]1Cc1cncn1C [Pilocarpine] (4 nM)	%	94.3

Here is another compound to look at.
Data point: CC(=O)c1c(C)c2cnc(Nc3ccc(N4CCNCC4)cn3)nc2n(C2CCCC2)c1=O (1 nM) ; normalised viability = 94.7

* * *

test system: BT-549; experiment: normalised response (% of control), CellTiter-Glo; higher = more viable cells (100 = DMSO, 0 = benzethonium chloride kill control); conditions: incubation time: 72 h
MEASURED_METRIC: normalised response (%)
Could you give me the number in %? Just the number is fine.

Examples with answers:
MOLECULE	ASSAY_SYSTEM	VAL
Cn1cnc2c(F)c(Nc3ccc(Br)cc3Cl)c(C(=O)NOCCO)cc21 [Selumetinib] (10000 nM)	BT-549	84.1
Cc1sc2c(c1C)C(c1ccc(Cl)cc1)=N[C@@H](CC(=O)OC(C)(C)C)c1nnc(C)n1-2 [(+)JQ1] (10000 nM)	BT-549	35.7
O=C1CN2Cc3c(ccc(Cl)c3Cl)N=C2N1 [Anagrelide] (10000 nM)	BT-549	97.3

Here is another molecule to look at.
Data point: C[C@]1(O)C[C@@H](c2nc(-c3ccc4ccc(-c5ccccc5)nc4c3)c3c(N)nccn32)C1 [Linsitinib] (10000 nM) ; normalised response = 76

* * *

system: HCC1937; experiment: normalised response (% of control), CellTiter-Glo; higher = more viable cells (100 = DMSO, 0 = benzethonium chloride kill control); details: incubation time: 72 h
Use criterion met when the recorded normalised response is no lower than 90%; use criterion not met when it is lower.

Example entries begin here.
MOLECULE	LABEL_VALUE
CC1(C)CNc2cc(NC(=O)c3cccnc3NCc3ccncc3)ccc21 [Motesanib] (10000 nM)	criterion met
Cn1cnc2c(F)c(Nc3ccc(Br)cc3Cl)c(C(=O)NOCCO)cc21 [Selumetinib] (10000 nM)	criterion not met

Req: Could you please find out whether CC(C)(C)c1cnc(CSc2cnc(NC(=O)C3CCNCC3)s2)o1 [SNS-032] (10000 nM) has normalised response that meets 90% or exceeds it?
Resp: criterion not met

Req: Could you please find out whether COc1cc(F)c(F)c(Nc2ccc(I)cc2F)c1NS(=O)(=O)C1(C[C@H](O)CO)CC1 [Refametinib] (10000 nM) has normalised response that meets 90% or exceeds it?
Resp: criterion not met

Req: Could you please find out whether CC1=C2C[C@H]3[C@@H](CC=C4C[C@@H](O)CC[C@@]43C)[C@@H]2CC[C@]12O[C@@H]1C[C@H](C)CN[C@H]1[C@H]2C [Cyclopamine] (10000 nM) has normalised response that meets 90% or exceeds it?
Resp: criterion met

Req: Could you please find out whether Cc1sc2c(c1C)C(c1ccc(Cl)cc1)=N[C@@H](CC(=O)OC(C)(C)C)c1nnc(C)n1-2 [(+)JQ1] (10000 nM) has normalised response that meets 90% or exceeds it?
Resp: criterion not met

* * *

tested on: CAL-85-1; assay: normalised response (% of control), CellTiter-Glo; higher = more viable cells (100 = DMSO, 0 = benzethonium chloride kill control); conditions: incubation time: 72 h
Form field: normalised response (one value per entry).
Could you give me the number in %? Just the number is fine.

Examples with answers:
MOLECULE	SCALE_UNIT	VAL
CC(=O)O[C@@]12CO[C@@H]1C[C@H](O)[C@@]1(C)C(=O)[C@H](O)C3=C(C)[C@@H](OC(=O)[C@H](O)[C@@H](NC(=O)OC(C)(C)C)c4ccccc4)C[C@@](O)([C@@H](OC(=O)c4ccccc4)[C@H]21)C3(C)C [Docetaxel] (10 nM)	%	26.6
Nc1ncn([C@@H]2O[C@H](CO)[C@@H](O)[C@H]2O)c(=O)n1 [Azacitidine] (100 nM)	%	99.1
Cn1cnc2c(F)c(Nc3ccc(Br)cc3Cl)c(C(=O)NOCCO)cc21 [Selumetinib] (100 nM)	%	100
CC1=C2C[C@H]3[C@@H](CC=C4C[C@@H](O)CC[C@@]43C)[C@@H]2CC[C@]12O[C@@H]1C[C@H](C)CN[C@H]1[C@H]2C [Cyclopamine] (100 nM)	%	106

Data point: Cn1cc(C2=Nc3cc(NC(=O)C(N)C4CCCCC4)cc4c3C2=CNNC4=O)cn1 (stereo unspecified) (100 nM) ; normalised response = 87.1

Data point: CC(=O)N(O)CCCCCNC(=O)CCC(=O)N(O)CCCCCNC(=O)CCC(=O)N(O)CCCCCN [Deferoxamine] (100 nM) ; normalised response = 95

* * *

test system: CAL-85-1; test: normalised response (% of control), CellTiter-Glo; higher = more viable cells (100 = DMSO, 0 = benzethonium chloride kill control); settings: incubation time: 72 h
MEASURED_METRIC: normalised response (%)
Could you give me the number in %? Just the number is fine.

COMPOUND	SCALE_UNIT	normalised response
Cn1cc(C2=Nc3cc(NC(=O)C(N)C4CCCCC4)cc4c3C2=CNNC4=O)cn1 (stereo not given) (1 nM)	%	95.9
Oc1ncnc2[nH]ncc12 [Allopurinol] (10 nM)	%	98.6
C[C@]12CC[C@@H]3c4ccc(OC(=O)N(CCCl)CCCl)cc4CC[C@H]3[C@@H]1CC[C@@H]2O [Estramustine] (1000 nM)	%	93.3
Cc1sc2c(c1C)C(c1ccc(Cl)cc1)=N[C@@H](CC(=O)OC(C)(C)C)c1nnc(C)n1-2 [(+)JQ1] (10 nM)	%	101

Here is another compound to look at.
Data point: Nc1nc2[nH]cnc2c(=S)[nH]1 [Thioguanine] (1000 nM) ; normalised response = 70.3

* * *

Form field: normalised response (one value per entry).
tested on: HDQ-P1; experiment: normalised response (% of control), CellTox Green; higher = less cell death (100 = DMSO, 0 = benzethonium chloride kill control); details: incubation time: 72 h
Could you give me the number in %? Just the number is fine.

Examples with answers:
COMPOUND	ASSAY_SYSTEM	normalised response [%]
CC(=O)O[C@@]12CO[C@@H]1C[C@H](O)[C@@]1(C)C(=O)[C@H](O)C3=C(C)[C@@H](OC(=O)[C@H](O)[C@@H](NC(=O)OC(C)(C)C)c4ccccc4)C[C@@](O)([C@@H](OC(=O)c4ccccc4)[C@H]21)C3(C)C [Docetaxel] (10 nM)	HDQ-P1	-5.27
CC(=O)O[C@@]12CO[C@@H]1C[C@H](O)[C@@]1(C)C(=O)[C@H](O)C3=C(C)[C@@H](OC(=O)[C@H](O)[C@@H](NC(=O)OC(C)(C)C)c4ccccc4)C[C@@](O)([C@@H](OC(=O)c4ccccc4)[C@H]21)C3(C)C [Docetaxel] (100 nM)	HDQ-P1	75.8
O=C1CN2Cc3c(ccc(Cl)c3Cl)N=C2N1 [Anagrelide] (100 nM)	HDQ-P1	101
COc1cc2c(cc1O)CC[C@@H]1[C@@H]2CC[C@]2(C)[C@@H](O)CC[C@@H]12 [2-methoxyestradiol] (100 nM)	HDQ-P1	107
Cn1cc(C2=Nc3cc(NC(=O)C(N)C4CCCCC4)cc4c3C2=CNNC4=O)cn1 (stereo unspecified) (10000 nM)	HDQ-P1	-67.6

Here is another compound to look at.
Data point: Nc1nc2[nH]cnc2c(=S)[nH]1 [Thioguanine] (1000 nM) ; normalised response = 109

Where do the numbers come from? From the supplement of paper PMC4862054.
